# System: NCI-H226 lung
# assayProcedure: NCI-60 one-dose screen, 48 h (100 = growth as untreated, 0 = no growth, -100 = all killed)
# conditionSet: 10 µM unless noted
About 83,000 compounds went through this panel and 20% of them were active in at least one assay; those are over-represented in the sample as a whole. Calls of active or inactive are those of the source. How the source made its calls: active means growth percent below 10; inactive means the rest.
Would you kindly list growth for each of these compounds?

IN: Looking for the measured growth of CCCSc1nc(Nc2ccc(/C(C)=N\NC(N)=S)cc2)c(C#N)c(-c2ccccc2)n1 , can you help?
OUT: 49.4% (inactive)

Provide growth for all items below, preserving their order.
1. Cc1nn(-c2ccccc2)c2ncnc(N/N=C/c3cccc(O)c3)c12
2. Cc1ccc(-c2cc3nc(C(Cl)Cl)nc(-c4cccs4)n3n2)cc1

OUT:
1: 80.5% (inactive); 2: 87.3% (inactive)
